B1: SNAP91 (parent)
chain: FAQPMMRPPFGAAAVPGTQLSPSP

Variants of: B1
Assay: protein stability index of a GFP-peptide fusion (GPS, HEK-293T) (PSI 1-6); higher = more stable;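 also: lentivirally expressed fusions sorted by FACS into six bins by GFP to DsRed ratio, PSI derived from sequencing read proportions per bin multiplied by bin number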
Details: c terminus: a fixed tail appended
Decide using protein stability index: a value greater than or equal to 3 is true (1), a smaller one is false (0).

Observe how each entry below is paired with its result.
> print(dat)
   mutation.string  category.label
1             P24S        true (1)
2              F1A        true (1)
3              P4Q       false (0)
4              M6N        true (1)
5             P22E       false (0)

Q: For this variant, is measured protein stability index 3 or higher? "M6Q"
Ans: true (1)

Q: For this variant, is measured protein stability index 3 or higher? "P16E"
Ans: false (0)

Q: For this variant, is measured protein stability index 3 or higher? "G11M"
Ans: true (1)

Q: For this variant, is measured protein stability index 3 or higher? "P22W"
Ans: false (0)

Q: For this variant, is measured protein stability index 3 or higher? "G17V"
Ans: false (0)

Q: For this variant, is measured protein stability index 3 or higher? "S23W"
Ans: false (0)

Q: For this variant, is measured protein stability index 3 or higher? "P16H"
Ans: false (0)

Q: For this variant, is measured protein stability index 3 or higher? "T18I"
Ans: false (0)

Q: For this variant, is measured protein stability index 3 or higher? "A14L"
Ans: false (0)

Q: For this variant, is measured protein stability index 3 or higher? "P22N"
Ans: true (1)

Q: For this variant, is measured protein stability index 3 or higher? "M6L"
Ans: true (1)

Q: For this variant, is measured protein stability index 3 or higher? "Q19C"
Ans: false (0)

Q: For this variant, is measured protein stability index 3 or higher? "F10T"
Ans: true (1)

Q: For this variant, is measured protein stability index 3 or higher? "P9M"
Ans: true (1)
